Assay: Pharmacokinetics in SD rats (i.v. and i.g.)
Format: in vivo
Conditions: male, Sprague-Dawley (SD), rat, plasma, iv, i.v 1 mg/kg
From the text: Instrument: water purification equipment, Millipore; electronic balance, METTLER TOLEDO; high-speed benchtop centrifuge, Thermo; water bath thermostatic oscillator, Shanghai Yiheng Technical Co., Ltd.; vortex oscillator, Thermo; LC-MS/MS, AB SCIEX. Method: all compounds were formulated in DMSO and 20% solutol. […] The plasma and pituitary homogenates were pre-treated and then analyzed by LC-MS/MS to determine the concentration of the test substances in the plasma and the pituitary. […]

- compound: "CONC(=O)Nc1ccc(-c2sc3c(c2CN(C)C)c(=O)n(-c2cccc(OC(F)F)c2F)c(=O)n3Cc2c(F)cccc2F)cc1 [Compound 3]"
  units text: "ng/mL"
  C0: 198
- compound: "CCNC(=O)Nc1ccc(-c2sc3c(c2CN(C)C)c(=O)n(-c2ccc(OC)nn2)c(=O)n3Cc2c(F)cccc2F)cc1 [Compound 2A]"
  units text: "ng/mL"
  C0: 521

---

Assay: Pharmacokinetics in SD rats (i.v. and i.g.)
Format: in vivo
Conditions: male, rat, plasma, intravenous, i.v 1 mg/kg

- molecule: "CONC(=O)Nc1ccc(-c2sc3c(c2CN(C)CCOC(F)(F)F)c(=O)n(-c2ccc(OC)nn2)c(=O)n3Cc2c(F)cccc2F)cc1"
  C0 (ng/mL): 2830

---

Assay: Metabolic stability in rat liver microsomes
Format: in vitro ADME, SD rat
Conditions: Sprague-Dawley (SD); Rat liver microsomes; read-out: CLint(mic)
# microsomal CLint values compiled below
measurement label: microsomal CLint (µL/min/mg)

- compound: "CNc1ccc(-n2c(=O)c3c(CN(C)C)c(-c4ccc(NC(=O)NOC)cc4)sc3n(Cc3c(F)cccc3F)c2=O)nn1"
  measurement qualifier: "="
  endpoint value: 19.4
- compound: "CONC(=O)Nc1ccc(-c2oc3c(c2CN(C)C)c(=O)n(-c2ccc(OC)nn2)c(=O)n3Cc2c(F)cccc2F)cc1"
  measurement qualifier: "<"
  endpoint value: 7.5
- compound: "CONC(=O)Nc1ccc(-c2sc3c(c2CN(C)C)c(=O)n(-c2ccc(OC)nn2)c(=O)n3Cc2c(F)cccc2F)cc1 [Relugolix, reference compound]"
  measurement qualifier: "="
  endpoint value: 16.4

---

Test: Metabolic stability in human liver microsomes
Assay type: in vitro ADME
Conditions: read-out: CLint(mic)
Parameter: microsomal CLint. Scope: all listed entries.
measurement label: microsomal CLint (µL/min/mg)

- molecule: "CCNC(=O)Nc1ccc(-c2sc3c(c2CN(C)C)c(=O)n(-c2ccc(OC)nn2)c(=O)n3Cc2c(F)cccc2F)cn1"
  measurement qualifier: "="
  endpoint value: 5.4
- molecule: "CONC(=O)Nc1ccc(-c2oc3c(c2CN(C)C)c(=O)n(-c2ccc(OC)nn2)c(=O)n3Cc2c(F)cccc2F)cc1"
  measurement qualifier: "<"
  endpoint value: 7.5
- molecule: "COc1ccc(-n2c(=O)c3c(CN(C)C)c(-c4ccc(NC(=O)NOCC(F)F)cc4)sc3n(Cc3c(F)cccc3F)c2=O)nn1"
  measurement qualifier: "="
  endpoint value: 8.2

---

Test: Pharmacokinetics in SD rats (i.v. and i.g.)
Assay type: in vivo
Details: male, rat, plasma, intravenous, i.v 1 mg/kg

- molecule: "CONC(=O)Nc1ccc(-c2sc3c(c2CN(C)CCOC(F)(F)F)c(=O)n(-c2ccc(OC)nn2)c(=O)n3Cc2c(F)cccc2F)cc1"
  MRT last / min: 32.3

---

MRT last overview
Assay: Pharmacokinetics in SD rats (i.v. and i.g.)
Format: in vivo
Settings: male, Sprague-Dawley (SD), rat, plasma, po, i.g 12 mg/kg

- molecule: "CONC(=O)Nc1ccc(-c2sc3c(c2CN(C)C)c(=O)n(-c2cccc(OC(F)F)c2F)c(=O)n3Cc2c(F)cccc2F)cc1"
  MRT last [h]: 7.3
- molecule: "CCNC(=O)Nc1ccc(-c2sc3c(c2CN(C)C)c(=O)n(-c2ccc(OC)nn2)c(=O)n3Cc2c(F)cccc2F)cc1"
  MRT last [h]: 9.2

---

Test: Pharmacokinetics in SD rats (i.v. and i.g.)
Type: in vivo
Conditions: male, rat, plasma, oral, i.g 12 mg/kg
measurement label: Cmax (ng/mL)

- compound: "CONC(=O)Nc1ccc(-c2sc3c(c2CN(C)CCOC(F)(F)F)c(=O)n(-c2ccc(OC)nn2)c(=O)n3Cc2c(F)cccc2F)cc1 [Compound 1]"
  measurement label: "Cmax"
  units text: "ng/mL"
  endpoint value: 664

---

The entries below are paired with their reported CLint scaled.
Assay: Metabolic stability in human liver microsomes
Format: in vitro ADME

- molecule: "CONC(=O)Nc1ccc(-c2sc3c(c2CN(C)C)c(=O)n(-c2cccc(OC(F)F)c2F)c(=O)n3Cc2c(F)cccc2F)cc1"
  measurement qualifier: "="
  CLint scaled (mL/min/kg): 17.5
- molecule: "CCNC(=O)Nc1ccc(-c2sc3c(c2CN(C)C)c(=O)n(-c2ccc(OC)nn2)c(=O)n3Cc2c(F)cccc2F)cn1"
  measurement qualifier: "="
  CLint scaled (mL/min/kg): 4.86
- molecule: "CNc1ccc(-n2c(=O)c3c(CN(C)C)c(-c4ccc(NC(=O)NOC)cc4)sc3n(Cc3c(F)cccc3F)c2=O)nn1"
  measurement qualifier: "<"
  CLint scaled (mL/min/kg): 6.75
- molecule: "CONC(=O)Nc1ccc(-c2sc3c(c2CN(C)C)c(=O)n(-c2ccc(OC)nn2)c(=O)n3Cc2c(F)cccc2C(F)(F)F)cc1"
  measurement qualifier: "<"
  CLint scaled (mL/min/kg): 6.75
- molecule: "CONC(=O)Nc1ccc(-c2oc3c(c2CN(C)C)c(=O)n(-c2ccc(OC)nn2)c(=O)n3Cc2c(F)cccc2F)cc1"
  measurement qualifier: "<"
  CLint scaled (mL/min/kg): 6.75

---

Test: Metabolic stability in rat liver microsomes
Format: in vitro ADME, SD rat
Settings: Rat liver microsomes, NADPH, 37° C.
# Residual content at 60 min values compiled below

- compound: "COc1ccc(-n2c(=O)c3c(CN(C)C)c(-c4ccc(NC(=O)NOCC(F)F)cc4)sc3n(Cc3c(F)cccc3F)c2=O)nn1"
  units text: "%"
  Residual content at 60 min: 47.0
- compound: "CONC(=O)Nc1ccc(-c2sc3c(c2CN(C)C)c(=O)n(-c2ccc(OC)nn2)c(=O)n3Cc2c(F)cccc2F)cc1 [Relugolix, reference compound]"
  units text: "%"
  Residual content at 60 min: 58.0
- compound: "CONC(=O)Nc1ccc(-c2sc3c(c2CN(C)C)c(=O)n(-c2ccc(OC)nn2)c(=O)n3Cc2c(F)cccc2C(F)(F)F)cc1"
  units text: "%"
  Residual content at 60 min: 98.7
- compound: "CNc1ccc(-n2c(=O)c3c(CN(C)C)c(-c4ccc(NC(=O)NOC)cc4)sc3n(Cc3c(F)cccc3F)c2=O)nn1"
  units text: "%"
  Residual content at 60 min: 57.1
- compound: "CONC(=O)Nc1ccc(-c2oc3c(c2CN(C)C)c(=O)n(-c2ccc(OC)nn2)c(=O)n3Cc2c(F)cccc2F)cc1"
  units text: "%"
  Residual content at 60 min: 89.9
- compound: "CONC(=O)Nc1ccc(-c2sc3c(c2CN(C)C)c(=O)n(-c2cccc(OC(F)F)c2F)c(=O)n3Cc2c(F)cccc2F)cc1"
  units text: "%"
  Residual content at 60 min: 34.5
- compound: "CCNC(=O)Nc1ccc(-c2sc3c(c2CN(C)C)c(=O)n(-c2ccc(OC)nn2)c(=O)n3Cc2c(F)cccc2F)cn1"
  units text: "%"
  Residual content at 60 min: 61.0

---

Experiment: Pharmacokinetics in SD rats (i.v. and i.g.)
Assay type: in vivo
Conditions: male, rat, plasma, oral, i.g 12 mg/kg vs i.v 1 mg/kg, read-out: F (absolute bioavailability)

- compound: "CCNC(=O)Nc1ccc(-c2sc3c(c2CN(C)C)c(=O)n(-c2ccc(OC)nn2)c(=O)n3Cc2c(F)cccc2F)cn1 [Compound 2]"
  bioavailability [%]: 19.9

---

Known half-life of a selection of molecules
Test: Metabolic stability in human liver microsomes
Type: in vitro ADME
measurement label: half-life (h)

- molecule: "CONC(=O)Nc1ccc(-c2sc3c(c2CN(C)C)c(=O)n(-c2ccc(OC)nn2)c(=O)n3Cc2c(F)cccc2C(F)(F)F)cc1"
  measurement label: "half-life"
  units text: "h"
  measurement qualifier: ">"
  endpoint value: 3.1
- molecule: "CCNC(=O)Nc1ccc(-c2sc3c(c2CN(C)C)c(=O)n(-c2ccc(OC)nn2)c(=O)n3Cc2c(F)cccc2F)cn1"
  measurement label: "half-life"
  units text: "h"
  measurement qualifier: "="
  endpoint value: 4.28
- molecule: "CONC(=O)Nc1ccc(-c2sc3c(c2CN(C)C)c(=O)n(-c2ccc(OC)nn2)c(=O)n3Cc2c(F)cccc2F)cc1 [Relugolix, reference compound]"
  measurement label: "half-life"
  units text: "h"
  measurement qualifier: "="
  endpoint value: 3.98
- molecule: "CONC(=O)Nc1ccc(-c2sc3c(c2CN(C)C)c(=O)n(-c2cccc(OC(F)F)c2F)c(=O)n3Cc2c(F)cccc2F)cc1"
  measurement label: "half-life"
  units text: "h"
  measurement qualifier: "="
  endpoint value: 1.19
- molecule: "CNc1ccc(-n2c(=O)c3c(CN(C)C)c(-c4ccc(NC(=O)NOC)cc4)sc3n(Cc3c(F)cccc3F)c2=O)nn1"
  measurement label: "half-life"
  units text: "h"
  measurement qualifier: ">"
  endpoint value: 3.1
- molecule: "CONC(=O)Nc1ccc(-c2oc3c(c2CN(C)C)c(=O)n(-c2ccc(OC)nn2)c(=O)n3Cc2c(F)cccc2F)cc1"
  measurement label: "half-life"
  units text: "h"
  measurement qualifier: ">"
  endpoint value: 3.1
- molecule: "COc1ccc(-n2c(=O)c3c(CN(C)C)c(-c4ccc(NC(=O)NOCC(F)F)cc4)sc3n(Cc3c(F)cccc3F)c2=O)nn1"
  measurement label: "half-life"
  units text: "h"
  measurement qualifier: "="
  endpoint value: 2.82

src = patent US20250000864A1
